Exercise: for every item that follows, state its recorded TGI.
- Tested on: DMS 114 small cell lung
- protocol-details: NCI tumour cell line growth inhibition, 48 h

Q: Return TGI for the following compound: O=C(NN1C(=O)CS(=O)(=O)C1c1cccc(F)c1)c1ccncc1 (stereo not given)
Ans: > 100 µM

Q: Return TGI for the following compound: Cc1cc(O)c(C(=O)O)c2c1C(=O)c1c(O)c(OCC(O)C(O)C(O)C(O)CO)c(O)c(O)c1C2=O (stereo not given) (tested in a mixture with another compound)
Ans: > 100 µM

Q: Return TGI for the following compound: CCOC(=O)C1=C(NC(C)(C)C)OC/C1=N\NC(=O)Cc1ccccc1
Ans: > 100 µM

Q: Return TGI for the following compound: Cc1cc(NS(=O)(=O)c2ccc(NC(=O)c3cccn4c(=O)c5ccccc5nc34)cc2)no1
Ans: > 100 µM

Q: Return TGI for the following compound: CCC(C)CN1C(=O)NC(Cc2ccccc2)C1=O (stereo not given)
Ans: > 100 µM

Q: Return TGI for the following compound: COc1ccc(S(=O)(=O)N/N=C\c2cc([N+](=O)[O-])cc(I)c2O)c(OC)c1OC
Ans: 64.6 µM

Q: Return TGI for the following compound: [Cl-].[Cl-].[Cl-].[O-]c1cccc2cccnc12.[O-]c1cccc2cccnc12.[O]=[Mo]
Ans: 3.13 µM

Q: Return TGI for the following compound: CC(CC[C@@H](C)C1CCC2[C@@H]3CC(O)C4CC(O)[C@@H](O)C[C@]4(C)C3CC[C@@]21C)C(C)(C)C (stereo not given in full)
Ans: > 100 µM

Q: Return TGI for the following compound: O=C(CC1=Nc2nnc(CCCCCCCc3nnc4n3C(=O)C(CC(=O)c3ccccc3)=N4)n2C1=O)c1ccccc1
Ans: > 100 µM

Q: Return TGI for the following compound: Nc1nc(SCCC/C=C/B(O)O)nc2c1ncn2C1OC(COP(=O)(O)O)C(O)C1O (stereo not given)
Ans: > 203 µM

----------
- Tested on: SNB-78 CNS
- protocol-details: NCI tumour cell line growth inhibition, 48 h
reported-metric: TGI

Q: Return TGI for the following molecule: [N-]=[N+]=Nc1ccccc1Oc1ccccc1
Ans: > 100 µM

Q: Return TGI for the following molecule: Nc1nc(SCCC/C=C/B(O)O)nc2c1ncn2C1OC(COP(=O)(O)O)C(O)C1O (stereo unspecified)
Ans: > 203 µM

Q: Return TGI for the following molecule: CC1CC(c2ccc([N+](=O)[O-])cc2)=Nc2ccccc2S1 (stereo unspecified)
Ans: > 100 µM

Q: Return TGI for the following molecule: COC(=O)c1cc(OC(C)=O)c2c(OC)ccc(OC)c2c1
Ans: > 100 µM

Q: Return TGI for the following molecule: COc1ccc(C2C(Cl)C(=O)N2NC(=O)c2ccc(N)cc2)cc1 (stereo unspecified)
Ans: > 100 µM

Q: Return TGI for the following molecule: Nc1ccc2c(c1)C(=O)N(OS(=O)(=O)c1ccccc1)C2=O
Ans: > 100 µM

----------
Exercise: for every item that follows, state its recorded TGI.
- System: LXFL 529 NSCLC
- protocol-details: NCI tumour cell line growth inhibition, 48 h

Q: Return TGI for the following compound: O=C(NC(=S)Nc1ccccc1)c1ccc([N+](=O)[O-])cc1
Ans: > 100 µM

Q: Return TGI for the following compound: COc1cccc(/C=C2\CCC(CCN(C)C)(C3=CCCC3)C2=O)c1 (centres undefined)
Ans: 28.9 µM

Q: Return TGI for the following compound: O=C1C2c3[nH]c4ccccc4c3C3CCCC3C2C(=O)N1c1ccccc1 (centres undefined)
Ans: > 100 µM

Q: Return TGI for the following compound: CC1CC2OC(=O)CC2C[C@@H]1O[Si](C)(C)C(C)(C)C (some centres undefined)
Ans: > 100 µM

Q: Return TGI for the following compound: N#CC(/C(CCCC(=O)Nc1cccc([N+](=O)[O-])c1)=N/NC(=O)c1cc2ccccc2cc1O)c1ccccc1 (centres undefined)
Ans: > 100 µM

Q: Return TGI for the following compound: CCCc1onc(CCC(=O)N(Cc2ccccc2)Cc2ccccc2)c1CC
Ans: > 100 µM

Q: Return TGI for the following compound: FC(F)(F)c1nnn[n-]1.[Au+].c1ccc([PH+](c2ccccc2)c2ccccc2)cc1
Ans: 2.82 µM

Q: Return TGI for the following compound: CC(=O)[CH-]C(C)=O.CC(=O)[CH-]C(C)=O.CC(=O)[CH-]C(C)=O.[In+3]
Ans: > 100 µM

Q: Return TGI for the following compound: COc1ccc(C2[C@H]3C(=O)N(c4ccc(Cc5ccc(N6C(=O)[C@@H]7ON(c8ccccc8)C(c8ccc(OC)cc8)[C@@H]7C6=O)cc5)cc4)C(=O)[C@H]3ON2c2ccccc2)cc1 (some centres undefined)
Ans: > 100 µM
